Cited source for all entries: the C3SDB collision cross section collection

# TEST_CONTEXT: [M+H]+; instrument: DT; stepped-field
REPORTED_ENDPOINT: collision cross section (N2) (Å²)

# COMPOUND, UNIT_ABBREV, collision cross section (N2)
rows = [
    ("OC[C@H]1O[C@@H]2O[C@H]3[C@H](O)[C@@H](O)[C@@H](O[C@H]4[C@H](O)[C@@H](O)[C@@H](O[C@H]5[C@H](O)[C@@H](O)[C@@H](O[C@H]6[C@H](O)[C@@H](O)[C@@H](O[C@H]7[C@H](O)[C@@H](O)[C@@H](O[C@H]8[C@H](O)[C@@H](O)[C@@H](O[C@H]9[C@H](O)[C@@H](O)[C@@H](O[C@H]1[C@H](O)[C@H]2O)O[C@@H]9CO)O[C@@H]8CO)O[C@@H]7CO)O[C@@H]6CO)O[C@@H]5CO)O[C@@H]4CO)O[C@@H]3CO [Gamma-Cyclodextrin]", "Å²", 322.6),
    ("OC[C@H]1O[C@H](O[C@H]2[C@H](O)[C@@H](O)[C@@H](O[C@H]3[C@H](O)[C@@H](O)[C@@H](O[C@H]4[C@H](O)[C@@H](O)[C@@H](O[C@H]5[C@H](O)[C@@H](O)[C@@H](O[C@H]6[C@H](O)[C@@H](O)[C@@H](O[C@H]7[C@H](O)[C@@H](O)[C@@H](O)O[C@@H]7CO)O[C@@H]6CO)O[C@@H]5CO)O[C@@H]4CO)O[C@@H]3CO)O[C@@H]2CO)[C@H](O)[C@@H](O)[C@@H]1O [Maltoheptaose]", "Å²", 303.3),
    ("CSCC[C@H](NC(=O)[C@H](C)N)C(=O)NCC(=O)N[C@@H](Cc1ccc(O)cc1)C(=O)N[C@@H](CCCNC(=N)N)C(=O)O [AMGYR]", "Å²", 245),
    ("CC(C)[C@H](N)C(=O)N[C@@H](CCC(=O)O)C(=O)N[C@@H](CC(=O)O)C(=O)N[C@H](C(=O)N[C@@H](CC(=O)O)C(=O)N[C@@H](CCCNC(=N)N)C(=O)O)C(C)C [VEDVDR]", "Å²", 256.6),
]
